Reference source for all entries: paper PMC9996623

target: HIV-1 integrase (Human immunodeficiency virus type 1 group M subtype B); test: HIV-1 integrase strand transfer; format: biochemical; details: read-out: %ST inhibition (percentage inhibition of strand transfer activity of integrase enzyme), 10 μM dose, WT (wild-type) integrase
OBSERVATION_TYPE: inhibition at 10 µM (%)

Prompt: Reported inhibition at 10 µM, molecule Cn1cc(-c2ccc3c(c2)OCO3)c2ccc(-c3ccncc3)nc21 [11f] : ____
Completion: 71

Prompt: Fill in: inhibition at 10 µM of COc1ccc(-c2ccc3c(-c4ccccc4)cn(C)c3n2)cc1 [11a] is ___
Completion: 39.3

Prompt: Find the recorded inhibition at 10 µM belonging to Cn1cc(-c2ccc(F)cc2)c2ccc(Cl)nc21 [10e] and report it.
Completion: 38.3

Prompt: Item Cn1cc(-c2ccccc2)c2ccc(-c3cc(C(F)(F)F)cc(C(F)(F)F)c3)nc21 [11c] has what recorded inhibition at 10 µM?
Completion: 36.4

Prompt: Endpoint output: inhibition at 10 µM of Cn1cc(-c2ccccc2)c2ccc(Cl)nc21 [10a] . Value?
Completion: 14

A = COc1ccc(-c2cn(C)c3nc(Cl)ccc23)cc1 [10d]
B = COc1ccc(Cn2cc(-c3ccc4c(c3)OCO4)c3ccc(-c4ccc5ccccc5c4)nc32)cc1 [12b]
Prompt: A or B : whose inhibition at 10 µM is greater? Bench note: the answer is the label of the chosen record.
Completion: A
(A: 56%, B: 24.1%)

----------
target: HIV-1 integrase (Human immunodeficiency virus type 1 group M subtype B); test: HIV-1 integrase strand transfer; type: biochemical; settings: read-out: %ST inhibition (percentage inhibition of strand transfer activity of integrase enzyme), 10 μM dose, WT (wild-type) integrase
OBSERVATION_TYPE: inhibition at 10 µM (%)

Prompt: State the recorded inhibition at 10 µM for this entry: Cn1cc(-c2cc(C(F)(F)F)cc(C(F)(F)F)c2)c2ccc(Cl)nc21 [10f]
Completion: 48.3

P = Cn1cc(-c2ccc3c(c2)OCO3)c2ccc(Cl)nc21 [10h]
Q = Cc1nnc(C(=O)NC(C)(C)c2nc(C(=O)NCc3ccc(F)cc3)c(O)c(=O)n2C)o1 [RAL, Raltegravir, reference compound]
R = COc1ccc(Cn2cc(-c3ccsc3)c3ccc(-c4ccncc4)nc32)cc1 [12a]
Prompt: Kindly order the items shown according to inhibition at 10 µM, from the highest value down. Answer by naming the labels in the order asked.
Completion: Q, P, R
(Q: 82%, P: 54%, R: 15.9%)

----------
biological target: HIV-1 integrase (Human immunodeficiency virus type 1 group M subtype B); experiment: HIV-1 integrase strand transfer; format: biochemical; settings: read-out: %ST inhibition (percentage inhibition of strand transfer activity of integrase enzyme), 10 μM dose, WT (wild-type) integrase
OBSERVATION_TYPE: inhibition at 10 µM (%)

Prompt: For the molecule shown here, COc1ccc(-c2ccc3c(-c4ccc(F)cc4F)cn(C)c3n2)cc1 [11d] , give the reported inhibition at 10 µM.
Completion: 72

a = Cc1ccc(-c2ccc3c(-c4ccccc4)cn(C)c3n2)cc1 [11b]
b = Cc1cccc(-c2cn(C)c3nc(Cl)ccc23)c1 [10c]
Prompt: Select one: a or b . Criterion: greater recorded inhibition at 10 µM. Selection: enter the item's label.
Completion: a
